// provenance: ChEMBL document CHEMBL5442334

Record form. Attribute: inhibition. Fill in for each entry.
- ASSAYED TARGET: Prostaglandin G/H synthase 2 (Homo sapiens)
- PROTOCOL SUMMARY: SafetyScreen: COX2 Human Cyclooxygenase Enzymatic LeadHunter Assay, catalogue number: 4186
- Type: functional
- ASSAY SETUP: Test compound concentration 10.0 uM
Numeric only. Scale: %

Which measured inhibition value corresponds to `CC(C)[C@H](Nc1ncnc2[nH]c(-c3cnn(C)c3C#N)cc12)c1ccc2c(n1)OCCO2` ?
-2

Which measured inhibition value corresponds to `Cc1nn(C)cc1-c1cc2c(N[C@H](c3ccc4c(c3)S(=O)(=O)CCC4)C(C)C)ncnc2[nH]1` ?
23

Which measured inhibition value corresponds to `C[C@H](C(=O)O)[C@@H](NC(=O)c1ncnc2[nH]ccc12)c1ccc(Br)cc1` ?
7

Which measured inhibition value corresponds to `CC(C)[C@H](Nc1ncnc2[nH]ccc12)c1ccc2c(c1)S(=O)(=O)CCC2` ?
23

Which measured inhibition value corresponds to `CNCc1cc(-c2cc3c(N[C@@H](c4ccc5c(c4)S(=O)(=O)CCC5)C(C)C)ncnc3[nH]2)co1` ?
24

Which measured inhibition value corresponds to `Cn1ncc(-c2cc3c(N[C@@H](c4ccc5c(n4)OCCO5)C(C)(C)C)ncnc3[nH]2)c1C#N` ?
-9

Which measured inhibition value corresponds to `CC(C)[C@@H](Nc1ncnc2[nH]c(-c3cnn(C)c3C#N)cc12)c1ccc2c(n1)OCCO2` ?
-7

Which measured inhibition value corresponds to `CC(C)[C@@H](Nc1ncnc2[nH]c(C(=O)N[C@@H]3CCN(C)C3)cc12)c1ccc2c(c1)S(=O)(=O)CCC2` ?
4

Which measured inhibition value corresponds to `CNC(=O)Cn1cc(-c2cc3c(N[C@@H](c4ccc5c(c4)S(=O)(=O)CCC5)C(C)C)ncnc3[nH]2)cn1` ?
27

Which measured inhibition value corresponds to `COc1ccc([C@H](Cc2nnn[nH]2)NC(=O)c2ncnc3[nH]ccc23)cc1` ?
-1

====

- ASSAYED TARGET: UniProt P41145
- Sequence (P41145 whole entry): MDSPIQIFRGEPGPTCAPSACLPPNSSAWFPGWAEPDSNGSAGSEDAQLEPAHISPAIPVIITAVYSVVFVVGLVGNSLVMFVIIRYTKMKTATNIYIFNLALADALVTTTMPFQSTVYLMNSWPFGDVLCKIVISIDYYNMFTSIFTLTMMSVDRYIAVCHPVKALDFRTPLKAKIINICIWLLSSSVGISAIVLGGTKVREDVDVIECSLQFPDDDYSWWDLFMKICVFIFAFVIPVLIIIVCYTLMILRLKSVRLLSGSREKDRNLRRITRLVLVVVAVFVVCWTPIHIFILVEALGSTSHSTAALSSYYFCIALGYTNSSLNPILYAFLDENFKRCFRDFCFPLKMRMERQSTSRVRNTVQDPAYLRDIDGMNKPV
- PROTOCOL SUMMARY: SafetyScreen: kappa (KOP) Human Opioid GPCR Binding Agonist Radioligand LeadHunter Assay, catalogue number: 4461
- ASSAY SETUP: Test compound concentration 10.0 uM
// label = Condition met if inhibition is not less than 30%, otherwise Condition not met

inhibition >= 30% for `CC(C)[C@H](Nc1ncnc2[nH]c(-c3cnn(C)c3C#N)cc12)c1ccc2c(n1)OCCO2` ?
Condition met

inhibition >= 30% for `CC(C)[C@@H](Nc1ncnc2[nH]c(C(=O)N[C@@H]3CCN(C)C3)cc12)c1ccc2c(c1)S(=O)(=O)CCC2` ?
Condition met

inhibition >= 30% for `CNC(=O)Cn1cc(-c2cc3c(N[C@@H](c4ccc5c(c4)S(=O)(=O)CCC5)C(C)C)ncnc3[nH]2)cn1` ?
Condition not met

inhibition >= 30% for `Cn1ncc(-c2cc3c(N[C@@H](c4ccc5c(n4)OCCO5)C(C)(C)C)ncnc3[nH]2)c1C#N` ?
Condition met

inhibition >= 30% for `C[C@H](C(=O)O)[C@@H](NC(=O)c1ncnc2[nH]ccc12)c1ccc(Br)cc1` ?
Condition not met

inhibition >= 30% for `Cc1nn(C)cc1-c1cc2c(N[C@H](c3ccc4c(c3)S(=O)(=O)CCC4)C(C)C)ncnc2[nH]1` ?
Condition met

====

- ASSAYED TARGET: Sodium-dependent dopamine transporter (Homo sapiens) (UniProt Q01959)
- Sequence (Q01959 whole entry): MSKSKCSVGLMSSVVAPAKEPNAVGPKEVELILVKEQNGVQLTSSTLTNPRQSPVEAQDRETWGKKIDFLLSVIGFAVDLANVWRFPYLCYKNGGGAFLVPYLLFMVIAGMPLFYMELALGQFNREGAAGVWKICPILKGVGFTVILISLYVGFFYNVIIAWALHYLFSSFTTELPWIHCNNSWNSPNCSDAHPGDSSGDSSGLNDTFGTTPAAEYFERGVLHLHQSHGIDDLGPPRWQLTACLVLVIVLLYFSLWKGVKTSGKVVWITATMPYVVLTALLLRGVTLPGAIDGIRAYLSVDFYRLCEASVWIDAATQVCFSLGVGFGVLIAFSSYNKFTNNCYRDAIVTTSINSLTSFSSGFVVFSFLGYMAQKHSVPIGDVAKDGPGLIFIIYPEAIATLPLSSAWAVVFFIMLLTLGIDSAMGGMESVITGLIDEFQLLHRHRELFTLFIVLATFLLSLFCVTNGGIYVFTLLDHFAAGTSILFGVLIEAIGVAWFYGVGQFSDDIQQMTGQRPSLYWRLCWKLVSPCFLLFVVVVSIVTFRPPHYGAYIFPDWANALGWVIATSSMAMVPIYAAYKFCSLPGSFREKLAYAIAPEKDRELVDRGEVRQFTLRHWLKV
- PROTOCOL SUMMARY: SafetyScreen: DAT Human Dopamine Transporter Binding Antagonist Radioligand LeadHunter Assay, catalogue number: 52
- ASSAY SETUP: Test compound concentration 10.0 uM
// label = fulfilled if inhibition is not less than 30%, otherwise not fulfilled

inhibition >= 30% for `CC(C)[C@H](Nc1ncnc2[nH]ccc12)c1ccc2c(c1)S(=O)(=O)CCC2` ?
not fulfilled

inhibition >= 30% for `C[C@H](C(=O)O)[C@@H](NC(=O)c1ncnc2[nH]ccc12)c1ccc(Br)cc1` ?
not fulfilled

inhibition >= 30% for `CC(C)[C@H](Nc1ncnc2[nH]c(-c3cnn(C)c3C#N)cc12)c1ccc2c(n1)OCCO2` ?
not fulfilled

inhibition >= 30% for `Cc1nn(C)cc1-c1cc2c(N[C@H](c3ccc4c(c3)S(=O)(=O)CCC4)C(C)C)ncnc2[nH]1` ?
not fulfilled

inhibition >= 30% for `Cn1ncc(-c2cc3c(N[C@@H](c4ccc5c(n4)OCCO5)C(C)(C)C)ncnc3[nH]2)c1C#N` ?
fulfilled

inhibition >= 30% for `CC(C)[C@@H](Nc1ncnc2[nH]c(C(=O)N[C@@H]3CCN(C)C3)cc12)c1ccc2c(c1)S(=O)(=O)CCC2` ?
not fulfilled

====

- ASSAYED TARGET: Alpha-2A adrenergic receptor (Homo sapiens) (UniProt P08913)
- Sequence (P08913 whole entry): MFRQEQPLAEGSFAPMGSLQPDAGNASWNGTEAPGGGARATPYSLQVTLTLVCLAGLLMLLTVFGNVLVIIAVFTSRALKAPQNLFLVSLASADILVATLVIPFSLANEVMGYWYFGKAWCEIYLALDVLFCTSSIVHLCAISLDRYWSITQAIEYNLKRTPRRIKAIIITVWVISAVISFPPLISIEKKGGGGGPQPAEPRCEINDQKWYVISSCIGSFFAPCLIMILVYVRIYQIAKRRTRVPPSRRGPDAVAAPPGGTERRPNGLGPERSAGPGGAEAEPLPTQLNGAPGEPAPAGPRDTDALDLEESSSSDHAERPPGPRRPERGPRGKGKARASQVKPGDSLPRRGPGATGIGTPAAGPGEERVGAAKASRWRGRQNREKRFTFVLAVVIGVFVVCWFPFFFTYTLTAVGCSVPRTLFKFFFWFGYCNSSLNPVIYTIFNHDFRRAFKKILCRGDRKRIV
- PROTOCOL SUMMARY: SafetyScreen: alpha2A Human Adrenoceptor GPCR Binding Antagonist Radioligand LeadHunter Assay, catalogue number: 13
- ASSAY SETUP: Test compound concentration 10.0 uM
OBSERVABLE: inhibition (%)
Numeric only. Scale: %

Which measured inhibition value corresponds to `C[C@H](C(=O)O)[C@@H](NC(=O)c1ncnc2[nH]ccc12)c1ccc(Br)cc1` ?
3

Which measured inhibition value corresponds to `CC(C)[C@H](Nc1ncnc2[nH]c(-c3cnn(C)c3C#N)cc12)c1ccc2c(n1)OCCO2` ?
7

Which measured inhibition value corresponds to `CNCc1cc(-c2cc3c(N[C@@H](c4ccc5c(c4)S(=O)(=O)CCC5)C(C)C)ncnc3[nH]2)co1` ?
15

Which measured inhibition value corresponds to `Cn1ncc(-c2cc3c(N[C@@H](c4ccc5c(n4)OCCO5)C(C)(C)C)ncnc3[nH]2)c1C#N` ?
11

====

- ASSAYED TARGET: Cannabinoid receptor 1 (Homo sapiens) (UniProt P21554)
- Sequence (P21554 whole entry): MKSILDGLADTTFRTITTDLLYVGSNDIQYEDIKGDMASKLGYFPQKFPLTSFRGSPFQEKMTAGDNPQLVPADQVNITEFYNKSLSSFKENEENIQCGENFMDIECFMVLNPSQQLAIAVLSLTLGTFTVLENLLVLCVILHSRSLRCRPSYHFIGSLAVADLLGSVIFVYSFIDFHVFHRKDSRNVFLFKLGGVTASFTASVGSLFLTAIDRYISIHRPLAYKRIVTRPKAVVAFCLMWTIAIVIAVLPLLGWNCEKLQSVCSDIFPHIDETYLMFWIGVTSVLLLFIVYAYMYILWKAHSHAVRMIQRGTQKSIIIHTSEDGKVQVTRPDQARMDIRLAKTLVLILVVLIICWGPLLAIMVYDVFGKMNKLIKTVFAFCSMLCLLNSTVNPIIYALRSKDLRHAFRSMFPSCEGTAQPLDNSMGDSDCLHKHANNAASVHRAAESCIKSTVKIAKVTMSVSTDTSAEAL
- PROTOCOL SUMMARY: SafetyScreen: CB1 Human Cannabinoid GPCR Binding Agonist Radioligand LeadHunter Assay, catalogue number: 4708
- ASSAY SETUP: Test compound concentration 10.0 uM
Record form. Attribute: inhibition. Fill in for each entry.
Numeric only. Scale: %

Which measured inhibition value corresponds to `CNCc1cc(-c2cc3c(N[C@@H](c4ccc5c(c4)S(=O)(=O)CCC5)C(C)C)ncnc3[nH]2)co1` ?
3

Which measured inhibition value corresponds to `Cn1ncc(-c2cc3c(N[C@@H](c4ccc5c(n4)OCCO5)C(C)(C)C)ncnc3[nH]2)c1C#N` ?
33

Which measured inhibition value corresponds to `COc1ccc([C@H](Cc2nnn[nH]2)NC(=O)c2ncnc3[nH]ccc23)cc1` ?
-8

====

- ASSAYED TARGET: Sodium-dependent serotonin transporter (Homo sapiens) (UniProt P31645)
- Sequence (P31645 whole entry, looked up): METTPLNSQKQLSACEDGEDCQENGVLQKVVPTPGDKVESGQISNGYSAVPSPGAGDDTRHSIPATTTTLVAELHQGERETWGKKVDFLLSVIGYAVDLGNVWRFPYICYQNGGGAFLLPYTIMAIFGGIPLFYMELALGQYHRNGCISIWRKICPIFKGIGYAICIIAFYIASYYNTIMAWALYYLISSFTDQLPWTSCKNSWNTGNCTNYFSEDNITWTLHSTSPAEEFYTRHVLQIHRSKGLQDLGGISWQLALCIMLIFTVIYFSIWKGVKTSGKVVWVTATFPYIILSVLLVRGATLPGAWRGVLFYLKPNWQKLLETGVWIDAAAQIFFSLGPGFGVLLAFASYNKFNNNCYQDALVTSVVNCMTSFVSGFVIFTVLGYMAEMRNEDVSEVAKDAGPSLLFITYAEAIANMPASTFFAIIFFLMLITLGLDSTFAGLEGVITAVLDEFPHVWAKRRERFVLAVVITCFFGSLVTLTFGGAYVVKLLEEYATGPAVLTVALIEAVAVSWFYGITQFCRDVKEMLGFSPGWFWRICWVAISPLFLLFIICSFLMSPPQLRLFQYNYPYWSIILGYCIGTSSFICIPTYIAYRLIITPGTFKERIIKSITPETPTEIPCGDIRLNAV
- PROTOCOL SUMMARY: SafetyScreen: SERT Human Serotonin Transporter Binding Antagonist Radioligand LeadHunter Assay, catalogue number: 439
- ASSAY SETUP: Test compound concentration 10.0 uM
Record form. Attribute: inhibition. Fill in for each entry.
Numeric only. Scale: %

Which measured inhibition value corresponds to `CNCc1cc(-c2cc3c(N[C@@H](c4ccc5c(c4)S(=O)(=O)CCC5)C(C)C)ncnc3[nH]2)co1` ?
24

Which measured inhibition value corresponds to `CC(C)[C@@H](Nc1ncnc2[nH]c(C(=O)N[C@@H]3CCN(C)C3)cc12)c1ccc2c(c1)S(=O)(=O)CCC2` ?
1

Which measured inhibition value corresponds to `CNC(=O)Cn1cc(-c2cc3c(N[C@@H](c4ccc5c(c4)S(=O)(=O)CCC5)C(C)C)ncnc3[nH]2)cn1` ?
-3

Which measured inhibition value corresponds to `Cn1ncc(-c2cc3c(N[C@@H](c4ccc5c(n4)OCCO5)C(C)(C)C)ncnc3[nH]2)c1C#N` ?
2

Which measured inhibition value corresponds to `CC(C)[C@H](Nc1ncnc2[nH]c(-c3cnn(C)c3C#N)cc12)c1ccc2c(n1)OCCO2` ?
4

====

Record form. Attribute: inhibition. Fill in for each entry.
- ASSAYED TARGET: Glutamate NMDA receptor (Rattus norvegicus) (UniProt P35439+Q00959+Q00960+Q00961+Q62645+Q8VHN2+Q9R1M7)
- PROTOCOL SUMMARY: SafetyScreen: Glutamate (NMDA, Non-Selective) Rat Ion Channel [3H] CGP-39653 Binding LeadHunter Assay, catalogue number: 66
- Assay type: protein-complex assay
- ASSAY SETUP: Test compound concentration 10.0 uM
Numeric only. Scale: %

Which measured inhibition value corresponds to `CC(C)[C@@H](Nc1ncnc2[nH]c(-c3cnn(C)c3C#N)cc12)c1ccc2c(n1)OCCO2` ?
1

Which measured inhibition value corresponds to `CC(C)[C@H](Nc1ncnc2[nH]ccc12)c1ccc2c(c1)S(=O)(=O)CCC2` ?
-1

Which measured inhibition value corresponds to `Cc1nn(C)cc1-c1cc2c(N[C@H](c3ccc4c(c3)S(=O)(=O)CCC4)C(C)C)ncnc2[nH]1` ?
-2

Which measured inhibition value corresponds to `C[C@H](C(=O)O)[C@@H](NC(=O)c1ncnc2[nH]ccc12)c1ccc(Br)cc1` ?
4

Which measured inhibition value corresponds to `CNC(=O)Cn1cc(-c2cc3c(N[C@@H](c4ccc5c(c4)S(=O)(=O)CCC5)C(C)C)ncnc3[nH]2)cn1` ?
-1
